From: patent US10179791B2

Biological target: human S1P1 (Homo sapiens (Human), UniProt P21453)
Sequence (P21453 whole entry): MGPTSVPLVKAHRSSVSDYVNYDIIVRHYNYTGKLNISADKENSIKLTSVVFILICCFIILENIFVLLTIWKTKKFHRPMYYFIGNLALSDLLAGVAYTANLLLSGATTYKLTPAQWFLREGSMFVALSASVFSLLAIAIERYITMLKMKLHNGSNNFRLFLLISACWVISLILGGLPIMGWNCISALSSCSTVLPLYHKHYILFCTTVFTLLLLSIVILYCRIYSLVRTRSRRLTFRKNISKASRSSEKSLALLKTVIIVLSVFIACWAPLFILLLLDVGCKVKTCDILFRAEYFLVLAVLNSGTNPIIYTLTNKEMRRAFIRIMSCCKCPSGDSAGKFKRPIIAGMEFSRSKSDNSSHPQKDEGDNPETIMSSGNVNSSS
Assay: In vitro functional activity (agonism) on human S1P1 receptors (method B), CHO-K1-human S1P1-cAMP assay
Type: cell-based
Details: agonism, determined using method B (cAMP HTRF with Forskolin, CHO-K1 cells); read-out: S1P1^B pEC50 (converted)
Structures can show the parent of a compound that is named as a salt.
PROPERTY_MEASURED: EC50

In the examples that follow, each entry is paired with its recorded EC50.
CCc1ccc(Cl)c(COc2ccc3c(c2)OCC32CCN(CCC(=O)O)CC2)c1 [Compound 51, hydrochloride]	> 3.16 µM
CCc1ccc(Cl)c(C2CC2c2ccc3c(c2)OCC32CCN(CCC(=O)O)CC2)c1 (stereo not drawn) [Compound 182, hydrochloride]	> 3.16 µM
O=C(O)CCN1CCC2(CC1)COc1cc(/C=C/c3c(Cl)cccc3Cl)ccc12 [Compound 160, hydrochloride]	> 3.16 µM
O=C(O)CCN1CCC2(CC1)COc1cc(Oc3c(Cl)cccc3Cl)ccc12 [Compound 248, hydrochloride]	> 3.16 µM
O=C(O)CCN1CCC2(CC1)COc1cc(/C=C/c3ccccc3F)ccc12 [Compound 171, hydrochloride]	> 3.16 µM

Please report the measured EC50 for O=C(O)CCN1CCC2(CC1)COc1cc(OC3CCc4cc(Cl)cc(Cl)c43)ccc12 (stereo not drawn)
2 µM

Please report the measured EC50 for CCc1ccc(Cl)c(COc2ccc3c(c2)OCC32CCN(CCC(=O)O)CC2)c1Cl [Compound 68, hydrochloride]
> 3.16 µM

Please report the measured EC50 for O=C(O)CCCN1CCC2(CC1)COc1cc(OCc3c(Cl)cccc3Cl)ccc12 [Compound 128, hydrochloride]
> 3.16 µM

Please report the measured EC50 for Cc1c(OCc2c(Cl)cccc2Cl)ccc2c1OCC21CCN(CCC(=O)O)CC1 [Compound 129, hydrochloride]
> 3.16 µM

Please report the measured EC50 for CC(CN1CCC2(CC1)COc1cc(OCc3c(Cl)cccc3Cl)ccc12)C(=O)O (stereo not drawn) [Compound 100, hydrochloride]
> 3.16 µM

Please report the measured EC50 for Cc1cc(Cl)c(COc2ccc3c(c2)OCC32CCN(CCC(=O)O)CC2)c(Cl)c1 [Compound 59, hydrochloride]
> 3.16 µM

Please report the measured EC50 for O=C(O)CCN1CCC2(CC1)COc1cc(C3CC3c3c(Cl)cccc3Cl)ccc12 (stereo not drawn) [Compound 178, hydrochloride]
> 3.16 µM
